- assay.target: Recombinant human LTC4 synthase (Homo sapiens)
- Construct: made in house; host or cells: Pichia pastoris
- assay.protocol: LTC4 synthase in vitro assay (HTRF detection of LTC4)
- Assay type: biochemical
- condition.context: total concentration of title compound in the assay 10 μM; HTRF method
- Description: Alternatively HTRF detection of LTC4 can be used: In the assay, LTC4 synthase catalyses the reaction where the substrate LTA4 is converted to LTC4. […] The following is added chronologically to each well: • 1. […] 10 μl of the incubation mixture is analysed using homogeneous time resolved fluorescent (HTRF) detection.
readout: inhibition at 10 µM (%)

Worked examples follow.
{"columns": ["structure.smiles", "assay.target", "inhibition at 10 µM (%)"],
 "data": [
  ["O=C(O)c1cc(Oc2cccc(Oc3ccc(F)c(F)c3)c2)ccc1Nc1ccc(F)c(F)c1", "Recombinant human LTC4 synthase (Homo sapiens)", 96],
  ["O=C(Nc1ccc(Oc2ccc(NC(=O)c3cccc(Cl)c3)c(C(=O)O)c2)cc1C(=O)O)c1cccc(Cl)c1", "Recombinant human LTC4 synthase (Homo sapiens)", 99],
  ["CCCCc1ccc(S(=O)(=O)N(C)c2ccc(Oc3ccc(NC(=O)c4ccc(OC(C)C)cc4)c(C(=O)O)c3)cc2)cc1", "Recombinant human LTC4 synthase (Homo sapiens)", 96]
]}

a = O=C(Nc1ccc([S+]([O-])c2ccc(NC(=O)c3cccc(Cl)c3)c(C(=O)O)c2)cc1C(=O)O)c1cccc(Cl)c1
b = CCCCc1ccc(C(=O)Nc2ccc(Oc3ccc(NS(=O)(=O)c4ccc5c(c4)CNCC5)c(CC(=O)O)c3)cc2)cc1
Prompt line: Response body: label of entry with the larger inhibition at 10 µM; valid values a , b . Mark your answer with the label of the selected entry.
Response line: a
(a: 100%, b: 23%)

====

- assay.target: Recombinant human LTC4 synthase (Homo sapiens, UniProt Q16873)
- Sequence (Q16873 1-150): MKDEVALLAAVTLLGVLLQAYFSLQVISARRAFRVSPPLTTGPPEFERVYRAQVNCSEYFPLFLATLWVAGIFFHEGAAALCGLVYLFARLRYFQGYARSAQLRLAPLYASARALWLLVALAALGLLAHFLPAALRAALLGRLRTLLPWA
- assay.protocol: LTC4 synthase in vitro assay (HPLC method)
- condition.context: inhibition of LTC4 synthase
pIC50: −log10 of the molar value.
readout: pIC50

{"columns": ["molecule", "assay.target", "pIC50"],
 "data": [
  ["CCCCOc1ccc(S(=O)(=O)Nc2ccc(Oc3cccc(S(=O)(=O)Nc4ccc(Cl)cc4)c3)cc2C(=O)O)cc1 [19:1]", "Recombinant human LTC4 synthase (Homo sapiens, UniProt Q16873)", 5.94],
  ["CC(C)Oc1ccc(C(=O)Nc2ccc(Oc3ccc(NC(=O)c4ccccc4)cc3)cc2/C=C/C(=O)O)cc1 [Example 22:3]", "Recombinant human LTC4 synthase (Homo sapiens, UniProt Q16873)", 5.29],
  ["CCCCOc1ccc(S(=O)(=O)Nc2ccc(Oc3cccc(Oc4ccc(F)c(F)c4)c3)cc2C(=O)O)cc1 [28:1]", "Recombinant human LTC4 synthase (Homo sapiens, UniProt Q16873)", 6.20],
  ["O=C(O)c1cc(Oc2ccc(Nc3ccc(F)cc3)c(C(=O)O)c2)ccc1Nc1ccc(F)cc1 [1:2]", "Recombinant human LTC4 synthase (Homo sapiens, UniProt Q16873)", 6.07]
]}

I = CC(C)(C)c1ccc(C(=O)Nc2cccc(Oc3ccc(NS(=O)(=O)c4ccc(C(C)(C)C)cc4)c(C(=O)O)c3)c2)cc1 [29:1]
II = O=C(Nc1ccc(Sc2ccc(NC(=O)Nc3ccc(C(F)(F)F)cc3)c(C(=O)O)c2)cc1)Nc1ccc(C(F)(F)F)cc1 [14:6]
Prompt line: Looking only at measured pIC50, which entry is lower, I or II ? Mark your answer with the label of the selected entry.
Response line: I
(I: 6.10, II: 6.35)
